target: tissue plasminogen activator (t-PA) (human, UniProt P00750 36-562, limits assumed); experiment: cell-based or functional assay
Sequence (P00750 36-562 limits assumed): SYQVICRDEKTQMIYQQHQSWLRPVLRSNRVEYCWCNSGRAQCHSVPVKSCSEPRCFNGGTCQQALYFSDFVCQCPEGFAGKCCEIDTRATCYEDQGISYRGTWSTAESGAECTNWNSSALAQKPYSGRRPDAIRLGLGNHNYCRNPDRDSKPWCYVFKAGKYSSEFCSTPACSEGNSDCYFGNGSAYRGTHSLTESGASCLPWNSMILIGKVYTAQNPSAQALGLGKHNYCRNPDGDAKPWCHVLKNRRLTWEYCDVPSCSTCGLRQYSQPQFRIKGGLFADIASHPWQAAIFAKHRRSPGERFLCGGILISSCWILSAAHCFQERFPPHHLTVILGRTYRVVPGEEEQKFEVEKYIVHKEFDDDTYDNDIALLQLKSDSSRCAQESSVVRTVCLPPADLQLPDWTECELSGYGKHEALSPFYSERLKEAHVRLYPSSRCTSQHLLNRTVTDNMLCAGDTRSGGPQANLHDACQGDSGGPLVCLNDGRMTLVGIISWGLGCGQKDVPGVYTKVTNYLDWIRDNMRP
acyl = not defined here
Lab note: compare t-PA:u-PA Selectivity with 0.3, writing satisfied if less and not satisfied if equal or more.

Reference set (4 entries):
>  <binder>
acyl-RGRK-NH2 (reading uncertain; also: acylated at the amino terminus (acyl group not given here)) [peptide (VI) of Table 1, RGRK]

>  <label-class>
not satisfied

$$$$
>  <binder>
LGGSGRSANAILE [peptide LGGSGRSANAILE]

>  <label-class>
satisfied

$$$$
>  <binder>
acyl-YGRS-NH2 (reading uncertain; also: acylated at the amino terminus (acyl group not given here)) [peptide (V) of Table 1, YGRS]

>  <label-class>
not satisfied

$$$$
>  <binder>
KKSPGRVVGGSVAH [peptide (I), native cleavage sequence from plasminogen]

>  <label-class>
not satisfied

$$$$

Now look at this one.
Please indicate whether the reported t-PA:u-PA Selectivity of LGQRGRSANAILE [peptide LGQRGRSANAILE] is strictly below 0.3.
not satisfied
